B1: glmS ribozyme (parent)
chain: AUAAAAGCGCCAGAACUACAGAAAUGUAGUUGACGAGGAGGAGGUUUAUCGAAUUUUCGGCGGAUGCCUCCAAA

variants of: B1; experiment: self-cleavage kobs at 10000 uM GlcN6P; higher = faster cleavage; RNA array; conditions: with glucosamine-6-phosphate
Variants at the floor of the assay were thinned out.
assay-readout: self-cleavage kobs at 10000 uM GlcN6P (s⁻¹)
Numbers only, in s⁻¹.

Observe how each entry below is paired with its result.
{"columns": ["variant-name", "self-cleavage kobs at 10000 uM GlcN6P / s⁻¹"],
 "data": [
  ["G29A A39U", 0.0037],
  ["U30G C68G", "2.71e-05"],
  ["U54C U57A", 0.000297],
  ["U31A U49G", 0.000277]
]}

Each variant below has a recorded value; state its self-cleavage kobs at 10000 uM GlcN6P.
1. G29A U65G
2. A15G C58A C70U
3. U30A U47G
4. U55A C67A
5. A48U U56G

1. 0.00113
2. 0.000281
3. 0.00109
4. 0.00563
5. 0.000206

Each variant below has a recorded value; state its self-cleavage kobs at 10000 uM GlcN6P.
1. G66U C71U
2. A53G C71U

0.0014
0.0402

Need self-cleavage kobs at 10000 uM GlcN6P of A15U G32C , thanks.
0.000112

# credit: the supplement of paper PMC7125110
